- experiment: soluble on expression in E. coli; label from the status in PepcDB or PDB records
quantity name: soluble on expression in E. coli

Some sequences with known soluble on expression in E. coli results, for comparison:
[
  {
    "sequence text": "GPLGSMSAAIAKPSAKPSAHVDPKSAPLKEIPDVLVDPRTMKRYMRGRFLGKGGFAKCYEITDMDTKEVFAGKVVPKSMLLKPHQKEKMSTEIAIHKSLDNPHVVGFHGFFEDDDFVYVVLEICRRRSLLELHKRRKAVTEPEARYFMRQTIQGVQYLHNNRVIHRDLKLGNLFLNDDMDVKIGDFGLATKIEFDGERKKTLCGTPNYIAPEVLCKKGHSFEVDIWSLGCILYTLLVGKPPFETSCLKETYIRIKKNEYSVPRHINPVASALIRRMLHADPTLRPSVAELLTDEFFTSGYAPMRLPTSCLTVPPRFS",
    "soluble on expression in E. coli": "soluble"
  },
  {
    "sequence text": "MLEDDFGREVSGVRVSLTDRCNFDCVYCHNEGLGDTRGPMEAQDDELTADTIVAFLEVAAEFGVDSVKFTGGEPMLREDLEEIVRRAPDEMEVSMTTNGTFLPGRAPDLVDAGLERVNVSQDALDSEAFAELTQSGAYDRVLEGVEAALDAGLEPVKLNMVVFEPTAGYVPKMVDHVAENPGLQLQLIEYMPELAGHPEWAIDIDRVHDWLEDRADKVEHREMHDRKRYWMHSGEAAVEGDSASTSLAASDGGIRTEPVNNHNSGMVEIVDPVGNENFCANCHRVRLTHDGYLKGCLNRNDDLRDIGTTKESMRAAFRETVDTRVPYYGEYMIETEDGEWEINEEYIDTDGDRAPYEYSE",
    "soluble on expression in E. coli": "not soluble"
  },
  {
    "sequence text": "VISCDDVPEDLETDHLFSSQMVAVVAPEHELAQREAITFDEFFEHELVMFQHGYFHREFLDHVSEEHGFSMKSSFETNLLPLILSIVRQEFAITALLELVTQNEKGVVGIPFHPPVTLDLALAWRKEGYLSIADRTFIDFVKRYV",
    "soluble on expression in E. coli": "not soluble"
  },
  {
    "sequence text": "AIANFNDAKNEILQVLSKTERQHLPKLLEWIKTSDDLDDILVDNQSVILHSIAEDLRACLPMEAMAPSETLAMQKTQQKAHPTVHVDAFLYDDETVDSLCEEGKMSRTYCLNCGSHRTAPLEFISHSFSIPELQFLFHNVLPELTGKLVLDVGSRLGAVLFGGYLYSAASQLVGVEMSSEFVKLQSMAVEKYGFSDRIQVIHADIRSQIALVQKADVLIMNNVFEYFMEPRDQMQAWLYISQNFRKKGALLVTVPSIQEALGLLQDAAFLETLSLSQWIEEIPVDYSVYLKNDTDPDSLKQIHLYRVL",
    "soluble on expression in E. coli": "soluble"
  },
  {
    "sequence text": "MADIAILVAEEYERRMKHTTVGSRSSPVEFDWWKIIPAKMTIAFDKMKIESLKKNFEAKSEFALAISHGFFSA",
    "soluble on expression in E. coli": "not soluble"
  }
]

soluble on expression in E. coli in this record for AKVEVGDEVGNFKFYPDSITVSAGEAVEFTLVGETPHNIVFDIPAGAPGTVASELKAASMDENDLLSEDEPSFKAKVSTPGTYTFYCTPHKSANMKGTLTVK : soluble

The reported soluble on expression in E. coli of the sequence MLAKIIMKNFKSFKNETVIDFTRINYKFLENNVSNNGVLKGVAFYGANASGKSNVLWAIRFLLDELFGEEKNPVTFMKCLFSDEPEFSLQYFFVIESREIHYLIDFHTEKGIINEELYLDRKLLLQRMGSTAKSGITEKKVYTDLNNKVLFLRTVYFNTGFSGDDKDNNANNNILRQWFDYMQNSIYVNPFLHRGIAYGKQDVVLNKYLENEGVKEINRFFTKYNFEYTLDYLNERKVKDVTEIVNDDNIKLVFFNRKGVNVPIPYVLESHGNQNLLNILPCFLRVVQNSGMLLVDEFSGGLHNELERLLVNYFFLEHHHHHH was not soluble

For MSICDPALRNALRTLKLSGMLDTLDARLAQTRNGDLGHLEFLQALREDEIARRESAALTRRLRRAKFEAQATFEDFDFTANPKLPGAMLRDLAALRWLDAGESVILHGPVGVGKTHVAQALVHAVARRGGDVRFAKTSRMLSDLAGGHADRSWGQRIREYTKPLVLILDDFAMREHTAMHADDLYELISDRAITGKPLILTSNRAPNNWYGLFPNPVVAESLLDRLINTSHQILMDGPSYRPRKRPGRTTS the sequence record lists soluble on expression in E. coli as not soluble
